The measured values listed here are drawn from patent US20210238260.

TEST_TARGET: Antithrombin III (plasma purified human AT-III, Molecular Innovations)
EXPERIMENTAL_PROTOCOL: AT-III/UFH inhibition: FIXa variant incubated with AT-III dilutions in excess unfractionated heparin, residual cleavage of Mesyl-D-CHG-Gly-Arg-AMC; K0.5 = AT-III concentration for 50% inhibition (IC50)
Everything with K0.5 lower than 2000 nM is not met; everything else, including exactly 2000 nM, is met.

- FIXa-D203N/F205T/R338E (protein) chain 1: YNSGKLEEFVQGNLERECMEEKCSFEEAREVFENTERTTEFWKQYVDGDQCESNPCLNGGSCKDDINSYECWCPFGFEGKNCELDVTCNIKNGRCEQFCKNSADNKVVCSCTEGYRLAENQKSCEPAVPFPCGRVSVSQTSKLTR chain 2: VVGGEDAKPGQFPWQVVLNGKVNATCGGSIVNEKWIVTAAHCVETGVKITVVAGEHNIEETEHTEQKRNVIRIIPHHNYNAAINKYNHDIALLELDEPLVLNSYVTPICIADKEYTNIFLKFGSGYVSGWGRVFHKGRSALVLQYLRVPLVDRATCLESTKFTIYNNMFCAGFHEGGRDSCQGDSGGPHVTEVEGTSFLTGIISWGEECAMKGKYGIYTKVSRYVNWIKEKTKLT: not met

Quick check, K0.5 >= 2000 nM? FIXa-D203N/F205T/K228N (protein) chain 1: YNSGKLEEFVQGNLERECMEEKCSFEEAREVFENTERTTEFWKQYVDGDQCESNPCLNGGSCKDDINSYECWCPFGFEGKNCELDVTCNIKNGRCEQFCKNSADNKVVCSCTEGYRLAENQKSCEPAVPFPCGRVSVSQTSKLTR chain 2: VVGGEDAKPGQFPWQVVLNGKVNATCGGSIVNEKWIVTAAHCVETGVNITVVAGEHNIEETEHTEQKRNVIRIIPHHNYNAAINKYNHDIALLELDEPLVLNSYVTPICIADKEYTNIFLKFGSGYVSGWGRVFHKGRSALVLQYLRVPLVDRATCLRSTKFTIYNNMFCAGFHEGGRDSCQGDSGGPHVTEVEGTSFLTGIISWGEECAMKGKYGIYTKVSRYVNWIKEKTKLT
not met

Quick check, K0.5 >= 2000 nM? FIXa-Y155F/R318Y/R338E/E410N (protein) chain 1: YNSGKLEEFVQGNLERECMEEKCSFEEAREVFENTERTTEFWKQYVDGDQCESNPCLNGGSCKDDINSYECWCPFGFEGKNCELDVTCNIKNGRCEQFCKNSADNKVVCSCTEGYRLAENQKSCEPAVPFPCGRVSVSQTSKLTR chain 2: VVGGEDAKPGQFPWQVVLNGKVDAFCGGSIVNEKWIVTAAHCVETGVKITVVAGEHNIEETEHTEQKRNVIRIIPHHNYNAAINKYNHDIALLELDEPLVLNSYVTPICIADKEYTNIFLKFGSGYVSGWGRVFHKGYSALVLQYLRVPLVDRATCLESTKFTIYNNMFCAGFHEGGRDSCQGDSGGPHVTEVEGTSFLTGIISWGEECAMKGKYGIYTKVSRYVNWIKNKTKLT
not met

Quick check, K0.5 >= 2000 nM? FIXa-K228N/R338E/R403E (protein) chain 1: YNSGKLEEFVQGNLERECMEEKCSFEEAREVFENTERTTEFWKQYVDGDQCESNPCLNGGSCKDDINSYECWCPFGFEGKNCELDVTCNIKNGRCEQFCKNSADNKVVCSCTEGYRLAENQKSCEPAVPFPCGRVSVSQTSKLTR chain 2: VVGGEDAKPGQFPWQVVLNGKVDAFCGGSIVNEKWIVTAAHCVETGVNITVVAGEHNIEETEHTEQKRNVIRIIPHHNYNAAINKYNHDIALLELDEPLVLNSYVTPICIADKEYTNIFLKFGSGYVSGWGRVFHKGRSALVLQYLRVPLVDRATCLESTKFTIYNNMFCAGFHEGGRDSCQGDSGGPHVTEVEGTSFLTGIISWGEECAMKGKYGIYTKVSEYVNWIKEKTKLT
not met

Quick check, K0.5 >= 2000 nM? FIXa-R318Y/R338E/E410N (protein) chain 1: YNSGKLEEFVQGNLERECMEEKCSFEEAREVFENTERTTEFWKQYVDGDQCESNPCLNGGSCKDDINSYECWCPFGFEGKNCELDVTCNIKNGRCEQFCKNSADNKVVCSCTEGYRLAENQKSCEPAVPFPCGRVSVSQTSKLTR chain 2: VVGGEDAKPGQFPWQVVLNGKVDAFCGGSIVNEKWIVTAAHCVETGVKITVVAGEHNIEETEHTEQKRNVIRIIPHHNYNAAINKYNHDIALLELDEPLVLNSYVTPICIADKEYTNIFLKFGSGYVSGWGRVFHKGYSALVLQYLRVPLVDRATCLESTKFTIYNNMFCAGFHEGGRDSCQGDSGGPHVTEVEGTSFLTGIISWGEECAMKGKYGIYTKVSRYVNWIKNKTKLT
met

Quick check, K0.5 >= 2000 nM? FIXa-K228N/R318Y/E410N (protein) chain 1: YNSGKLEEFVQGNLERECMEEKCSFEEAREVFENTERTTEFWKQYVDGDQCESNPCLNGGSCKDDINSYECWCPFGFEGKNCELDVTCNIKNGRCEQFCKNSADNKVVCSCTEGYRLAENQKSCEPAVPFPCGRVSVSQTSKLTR chain 2: VVGGEDAKPGQFPWQVVLNGKVDAFCGGSIVNEKWIVTAAHCVETGVNITVVAGEHNIEETEHTEQKRNVIRIIPHHNYNAAINKYNHDIALLELDEPLVLNSYVTPICIADKEYTNIFLKFGSGYVSGWGRVFHKGYSALVLQYLRVPLVDRATCLRSTKFTIYNNMFCAGFHEGGRDSCQGDSGGPHVTEVEGTSFLTGIISWGEECAMKGKYGIYTKVSRYVNWIKNKTKLT
not met

Quick check, K0.5 >= 2000 nM? FIXa-R338E/R403E/E410N (protein) chain 1: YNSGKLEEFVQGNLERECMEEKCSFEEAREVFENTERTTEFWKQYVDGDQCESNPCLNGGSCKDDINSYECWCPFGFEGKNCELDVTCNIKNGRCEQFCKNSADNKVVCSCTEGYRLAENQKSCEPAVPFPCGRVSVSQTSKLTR chain 2: VVGGEDAKPGQFPWQVVLNGKVDAFCGGSIVNEKWIVTAAHCVETGVKITVVAGEHNIEETEHTEQKRNVIRIIPHHNYNAAINKYNHDIALLELDEPLVLNSYVTPICIADKEYTNIFLKFGSGYVSGWGRVFHKGRSALVLQYLRVPLVDRATCLESTKFTIYNNMFCAGFHEGGRDSCQGDSGGPHVTEVEGTSFLTGIISWGEECAMKGKYGIYTKVSEYVNWIKNKTKLT
met
